Data provenance: patent US20060247260A1

Biological target: PGI2 receptor (Homo sapiens, UniProt P43119)
Construct: host or cells: HEL 92.1.7 human erythroleukemia cells (whole cells)
Sequence (P43119 whole entry): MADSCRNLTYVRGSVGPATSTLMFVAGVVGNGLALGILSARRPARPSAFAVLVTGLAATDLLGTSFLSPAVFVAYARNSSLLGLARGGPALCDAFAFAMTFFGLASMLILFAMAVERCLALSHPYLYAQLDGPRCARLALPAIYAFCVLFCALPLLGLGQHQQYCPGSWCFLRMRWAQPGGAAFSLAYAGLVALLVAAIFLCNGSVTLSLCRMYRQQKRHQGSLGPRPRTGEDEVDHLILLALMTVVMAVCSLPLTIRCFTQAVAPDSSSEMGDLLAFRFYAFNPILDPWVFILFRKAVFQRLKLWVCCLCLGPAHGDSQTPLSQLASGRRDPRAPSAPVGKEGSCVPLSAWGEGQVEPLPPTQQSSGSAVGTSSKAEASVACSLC
Test: PGI2 receptor binding/cAMP in HEL cells (in vitro activity grade)
Conditions: compounds of purity about 40 to 90%

>  <compound>
O=C(NC(Cc1ccccc1)C(=O)O)c1ccc(-c2ccc(OCc3c(F)cccc3F)cc2)cc1 (stereo not shown)

>  <In vitro activity grade>
B (0.1 μM<B≦1 μM)

$$$$
>  <compound>
CCCCOc1ccc(-c2ccc(C(=O)NC(Cc3ccccc3)C(=O)O)cc2)cc1 (stereo not shown)

>  <In vitro activity grade>
B (0.1 μM<B≦1 μM)

$$$$
>  <compound>
COc1ccc(COc2ccc(-c3ccc(C(=O)NC(Cc4ccccc4)C(=O)O)cc3)cc2)cc1 (stereo not shown)

>  <In vitro activity grade>
B (0.1 μM<B≦1 μM)

$$$$

----------
Target: PGI2 receptor (Homo sapiens, UniProt P43119)
Construct: host or cells: HEL 92.1.7 human erythroleukemia cells (whole cells)
Assay: PGI2 receptor binding/cAMP in HEL cells (in vitro activity grade)
Conditions: compounds of purity about 40 to 90%
Protocol: [Measurement of the [^3H]-Iloprost Binding to HEL Cells] […] [^3H]-radio activity in the filter was measured by a liquid scintillation counter (Beckman, USA). […] Then, another 10 μl containing 100 nM iloprost in CAB or buffer alone was added and further incubated at 37° C. for 30 min. cAMP content in the well was measured by, a cAMP ELISA kit (Applied Biosystems, USA). […]
assay-metric: In vitro activity grade

>  <compound>
COc1cc(COc2ccc(-c3ccc(C(=O)NC(Cc4ccccc4)C(=O)O)cc3)cc2)cc(OC)c1OC (centres unmarked)

>  <tgt>
PGI2 receptor (Homo sapiens, UniProt P43119)

>  <In vitro activity grade>
C (1 μM<C)

$$$$
>  <compound>
O=C(NC(Cc1ccccc1)C(=O)O)c1ccc(-c2ccc(OCc3ccccc3OC(F)(F)F)cc2)cc1 (centres unmarked)

>  <tgt>
PGI2 receptor (Homo sapiens, UniProt P43119)

>  <In vitro activity grade>
C (1 μM<C)

$$$$
>  <compound>
O=C(NC(Cc1ccccc1)C(=O)O)c1ccc(-c2ccc(OCc3c(Cl)cccc3Cl)cc2)cc1 (centres unmarked)

>  <tgt>
PGI2 receptor (Homo sapiens, UniProt P43119)

>  <In vitro activity grade>
A (A≦0.1 μM)

$$$$
>  <compound>
O=C(NC(Cc1ccccc1)C(=O)O)c1ccc(-c2ccc(OCCCc3ccccc3)cc2)cc1 (centres unmarked)

>  <tgt>
PGI2 receptor (Homo sapiens, UniProt P43119)

>  <In vitro activity grade>
B (0.1 μM<B≦1 μM)

$$$$

Prompt: Returns the measured In vitro activity grade for the input compound. Input: O=C(NC(Cc1ccccc1)C(=O)O)c1ccc(-c2ccc(OCc3ccccc3F)cc2)cc1 (centres unmarked)
Response: A (A≦0.1 μM)

Prompt: Returns the measured In vitro activity grade for the input compound. Input: O=C(NC(Cc1ccccc1)C(=O)O)c1ccc(-c2ccc(OCc3ccc(Cl)cc3)cc2)cc1 (centres unmarked)
Response: B (0.1 μM<B≦1 μM)

Prompt: Returns the measured In vitro activity grade for the input compound. Input: O=C(NC(Cc1ccccc1)C(=O)O)c1ccc(-c2ccc(OCc3ccccc3Cl)cc2)cc1 (centres unmarked)
Response: A (A≦0.1 μM)

Prompt: Returns the measured In vitro activity grade for the input compound. Input: O=C(NC(Cc1ccccc1)C(=O)O)c1ccc(-c2ccc(OCc3ccccc3)cc2)cc1 (centres unmarked)
Response: A (A≦0.1 μM)

Prompt: Returns the measured In vitro activity grade for the input compound. Input: O=C(NC(Cc1ccccc1)C(=O)O)c1ccc(-c2ccc(OCc3cc(Cl)cc(Cl)c3)cc2)cc1 (centres unmarked)
Response: C (1 μM<C)

Prompt: Returns the measured In vitro activity grade for the input compound. Input: O=C(NC(Cc1ccccc1)C(=O)O)c1cc(-c2ccc(OCc3ccccc3)cc2)on1 (centres unmarked)
Response: A (A≦0.1 μM)

Prompt: Returns the measured In vitro activity grade for the input compound. Input: O=C(NC(Cc1ccccc1)C(=O)O)c1ccc(-c2ccc(OCc3ccc(F)c(F)c3)cc2)cc1 (centres unmarked)
Response: A (A≦0.1 μM)

Prompt: Returns the measured In vitro activity grade for the input compound. Input: O=C(NC(Cc1ccccc1)C(=O)O)c1ccc(-c2ccc(OCc3ccccc3)cc2)nc1 (centres unmarked)
Response: A (A≦0.1 μM)

Prompt: Returns the measured In vitro activity grade for the input compound. Input: O=C(NC(Cc1ccccc1)C(=O)O)c1ccc(-c2ccc(OCc3ccc(OC(F)(F)F)cc3)cc2)cc1 (centres unmarked)
Response: C (1 μM<C)

Prompt: Returns the measured In vitro activity grade for the input compound. Input: O=C(NC(Cc1ccccc1)C(=O)O)c1ccc(-c2ccc(OCC3CCCCC3)cc2)cc1 (centres unmarked)
Response: B (0.1 μM<B≦1 μM)

Prompt: Returns the measured In vitro activity grade for the input compound. Input: O=C(NC(Cc1ccccc1)C(=O)O)c1ccc(-c2ccc(OCc3ccc(F)cc3F)cc2)cc1 (centres unmarked)
Response: A (A≦0.1 μM)

----------
Biological target: PGI2 receptor (Homo sapiens)
Construct: host or cells: HEL 92.1.7 human erythroleukemia cells (whole cells)
Experiment: PGI2 receptor binding/cAMP in HEL cells (in vitro activity grade)
Conditions: compounds of purity about 40 to 90%

>  <compound>
O=C(NC(Cc1ccccc1)C(=O)O)c1ccc(-c2cnc(OCc3ccccc3)nc2)cc1 (stereo not shown) [Example 5-1]

>  <In vitro activity grade>
A (A≦0.1 μM)

$$$$
>  <compound>
O=C(NC(Cc1ccccc1)C(=O)O)c1ccc(-c2ccc(OCc3ccc(Cl)c(Cl)c3)cc2)cc1 (stereo not shown) [Example 8-10]

>  <In vitro activity grade>
B (0.1 μM<B≦1 μM)

$$$$
>  <compound>
O=C(NC(Cc1ccccc1)C(=O)O)c1ccc(-c2ccc(OCc3ccccc3)c(F)c2)cc1 (stereo not shown) [Example 7-1]

>  <In vitro activity grade>
A (A≦0.1 μM)

$$$$
>  <compound>
O=C(NC(Cc1ccccc1)C(=O)O)c1ccc(-c2ccc(OCCCn3cccc3)cc2)cc1 (stereo not shown) [Example 8-34]

>  <In vitro activity grade>
B (0.1 μM<B≦1 μM)

$$$$

----------
Each entry below carries its recorded melting point.

Reference set, count: 3
>  <molecule>
O=C(NC(Cc1ccccc1)C(=O)O)c1cc(-c2ccc(OCc3ccccc3)cc2)[nH]n1 (stereo not shown) [Example 1-1]

>  <melting point>
196 to 200 °C

$$$$
>  <molecule>
O=C(NC(Cc1ccccc1)C(=O)O)c1ccc(-c2ccc(OCc3ccccc3)c(F)c2)cc1 (stereo not shown) [Example 7-1]

>  <melting point>
215 °C

$$$$
>  <molecule>
O=C(NC(Cc1ccccc1)C(=O)O)c1ccc(-c2ccc(OCc3ccccc3)cc2)s1 (stereo not shown) [Example 2-1]

>  <melting point>
215 to 216 °C

$$$$

Proceed to the following item.
Prompt: Returns the measured melting point for the input molecule. Input: O=C(NC(Cc1ccccc1)C(=O)[O-])c1ccc(-c2ccc(OCc3ccccc3)nc2)cc1.[Na+] (stereo not shown) [Example 6-1]
Response: 240 to 242 °C

----------
Target: PGI2 receptor (Homo sapiens, UniProt P43119)
Construct: host or cells: HEL 92.1.7 human erythroleukemia cells (whole cells)
Experiment: PGI2 receptor binding/cAMP in HEL cells (in vitro activity grade)
Settings: compounds of purity about 40 to 90%
assay-metric: In vitro activity grade

Reference set, count: 5
>  <compound>
COc1cccc(COc2ccc(-c3ccc(C(=O)NC(Cc4ccccc4)C(=O)O)cc3)cc2)c1 (centres unmarked) [Example 8-14]

>  <In vitro activity grade>
A (A≦0.1 μM)

$$$$
>  <compound>
O=C(NC(Cc1ccccc1)C(=O)O)c1ccc(-c2ccc(OCCc3ccccc3)cc2)cc1 (centres unmarked) [Example 8-35]

>  <In vitro activity grade>
A (A≦0.1 μM)

$$$$
>  <compound>
Cc1ccc(COc2ccc(-c3ccc(C(=O)NC(Cc4ccccc4)C(=O)O)cc3)cc2)cc1 (centres unmarked) [Example 8-19]

>  <In vitro activity grade>
B (0.1 μM<B≦1 μM)

$$$$
>  <compound>
O=C(NC(Cc1ccccc1)C(=O)O)c1ccc(-c2ccc(OCc3cccc(Cl)c3Cl)cc2)cc1 (centres unmarked) [Example 8-11]

>  <In vitro activity grade>
A (A≦0.1 μM)

$$$$
>  <compound>
Cc1ccc(COc2ccc(-c3ccc(C(=O)NC(Cc4ccccc4)C(=O)O)cc3)cc2)c(C)c1 (centres unmarked) [Example 8-27]

>  <In vitro activity grade>
B (0.1 μM<B≦1 μM)

$$$$

Prompt: Returns the measured In vitro activity grade for the input compound. Input: O=C(NC(Cc1ccccc1)C(=O)O)c1ccc(-c2ccc(OCc3ccc(F)cc3)cc2)cc1 (centres unmarked) [Example 8-5]
Response: A (A≦0.1 μM)

Prompt: Returns the measured In vitro activity grade for the input compound. Input: O=C(NC(Cc1ccccc1)C(=O)O)c1ccc(-c2ccc(OCc3cccc(C(F)(F)F)c3)cc2)cc1 (centres unmarked) [Example 8-20]
Response: B (0.1 μM<B≦1 μM)

Prompt: Returns the measured In vitro activity grade for the input compound. Input: Cc1cc(C)cc(COc2ccc(-c3ccc(C(=O)NC(Cc4ccccc4)C(=O)O)cc3)cc2)c1 (centres unmarked) [Example 8-25]
Response: B (0.1 μM<B≦1 μM)
